conditions: in methyl acetate, 318.15 K
reportedMetric: solubility (mole fraction)
One number for each entry.

Q: Fill in solubility (mole fraction) for record CC1(C)CO[P+]([O-])(Oc2c(Br)cc(Br)cc2Br)OC1
Ans: 0.0138

----------
conditions: in dichloromethane, 303.15 K
reportedMetric: solubility (mole fraction)
Give bare numbers.

Q: Return reported solubility (mole fraction). Input compound: CC1(C)CO[P+]([O-])(Oc2c(Br)cc(Br)cc2Br)OC1
Ans: 0.0653

----------
settings: in methyl acetate, 293.15 K
reportedMetric: solubility (mole fraction)
Numbers only.

Q: Report solubility (mole fraction), nothing else, for this compound: CC1(C)CO[P+]([O-])(Oc2c(Br)cc(Br)cc2Br)OC1
Ans: 0.00649

----------
details: in ethyl acetate, 308.15 K
reportedMetric: solubility (mole fraction)
Answers are plain numbers.

Q: Determine its reported solubility (mole fraction): CC1(C)CO[P+]([O-])(Oc2c(Br)cc(Br)cc2Br)OC1
Ans: 0.00748

----------
conditions: in THF, 308.15 K
reportedMetric: solubility (mole fraction)
Give bare numbers.

Q: Indicate its recorded solubility (mole fraction); the molecule in question is CC1(C)CO[P+]([O-])(Oc2c(Br)cc(Br)cc2Br)OC1
Ans: 0.0329

----------
details: in methyl acetate, 298.15 K
reportedMetric: solubility (mole fraction)
One number for each entry.

Q: Please give the documented solubility (mole fraction) of CC1(C)CO[P+]([O-])(Oc2c(Br)cc(Br)cc2Br)OC1
Ans: 0.00765

----------
conditions: in chloroform, 293.15 K
reportedMetric: solubility (mole fraction)
One number for each entry.

Q: Given CC1(C)CO[P+]([O-])(Oc2c(Br)cc(Br)cc2Br)OC1 , respond with its solubility (mole fraction).
Ans: 0.0844

----------
settings: in acetone, 318.15 K
reportedMetric: solubility (mole fraction)
Answers are plain numbers.

Q: Give solubility (mole fraction) for CC1(C)CO[P+]([O-])(Oc2c(Br)cc(Br)cc2Br)OC1
Ans: 0.0254

----------
details: in toluene, 293.15 K
reportedMetric: solubility (mole fraction)
Give bare numbers.

Q: Provide one value: measured solubility (mole fraction) of CC1(C)CO[P+]([O-])(Oc2c(Br)cc(Br)cc2Br)OC1
Ans: 0.00784

----------
details: in methanol, 298.15 K
reportedMetric: solubility (mole fraction)
Give bare numbers.

Q: Report solubility (mole fraction) for CC1(C)CO[P+]([O-])(Oc2c(Br)cc(Br)cc2Br)OC1
Ans: 0.0024

----------
conditions: in chloroform, 303.15 K
reportedMetric: solubility (mole fraction)

Q: Give the reported value of solubility (mole fraction) for this record: CC1(C)CO[P+]([O-])(Oc2c(Br)cc(Br)cc2Br)OC1
Ans: 0.0947

----------
conditions: in acetone, 313.15 K
reportedMetric: solubility (mole fraction)

Q: Report measured solubility (mole fraction); entry is CC1(C)CO[P+]([O-])(Oc2c(Br)cc(Br)cc2Br)OC1
Ans: 0.0226

----------
settings: in methyl acetate, 303.15 K
reportedMetric: solubility (mole fraction)
One number for each entry.

Q: Output measured solubility (mole fraction) for this item: CC1(C)CO[P+]([O-])(Oc2c(Br)cc(Br)cc2Br)OC1
Ans: 0.00867

----------
conditions: in acetone, 303.15 K
reportedMetric: solubility (mole fraction)
Give bare numbers.

Q: // Input: CC1(C)CO[P+]([O-])(Oc2c(Br)cc(Br)cc2Br)OC1 . Output its solubility (mole fraction) only.
Ans: 0.0171

----------
conditions: in ethanol, 318.15 K
reportedMetric: solubility (mole fraction)
Numbers only.

Q: Assign solubility (mole fraction) to the following record: CC1(C)CO[P+]([O-])(Oc2c(Br)cc(Br)cc2Br)OC1
Ans: 0.00556

----------
conditions: in acetonitrile, 333.15 K
reportedMetric: solubility (mole fraction)

Q: Please look at this compound and report its solubility (mole fraction): CC1(C)CO[P+]([O-])(Oc2c(Br)cc(Br)cc2Br)OC1
Ans: 0.0184

----------
conditions: in ethanol, 333.15 K
reportedMetric: solubility (mole fraction)
One number for each entry.

Q: Give the measured solubility (mole fraction) for CC1(C)CO[P+]([O-])(Oc2c(Br)cc(Br)cc2Br)OC1
Ans: 0.00795

----------
details: in toluene, 343.15 K
reportedMetric: solubility (mole fraction)
One number for each entry.

Q: Name the recorded solubility (mole fraction) of the compound listed here: CC1(C)CO[P+]([O-])(Oc2c(Br)cc(Br)cc2Br)OC1
Ans: 0.0349

----------
details: in THF, 303.15 K
reportedMetric: solubility (mole fraction)
Give bare numbers.

Q: Give solubility (mole fraction) for CC1(C)CO[P+]([O-])(Oc2c(Br)cc(Br)cc2Br)OC1
Ans: 0.0303

----------
conditions: in methanol, 333.15 K
reportedMetric: solubility (mole fraction)

Q: Consider the molecule CC1(C)CO[P+]([O-])(Oc2c(Br)cc(Br)cc2Br)OC1 and give its recorded solubility (mole fraction).
Ans: 0.0081

----------
conditions: in THF, 323.15 K
reportedMetric: solubility (mole fraction)
Numbers only.

Q: Find the measured solubility (mole fraction) of CC1(C)CO[P+]([O-])(Oc2c(Br)cc(Br)cc2Br)OC1 and report it.
Ans: 0.0448

----------
settings: in methanol, 293.15 K
reportedMetric: solubility (mole fraction)
Give bare numbers.

Q: Quick one: give measured solubility (mole fraction) for CC1(C)CO[P+]([O-])(Oc2c(Br)cc(Br)cc2Br)OC1
Ans: 0.00195

----------
conditions: in ethyl acetate, 328.15 K
reportedMetric: solubility (mole fraction)
Give bare numbers.

Q: Could you please provide reported solubility (mole fraction) for CC1(C)CO[P+]([O-])(Oc2c(Br)cc(Br)cc2Br)OC1 ? Thanks!
Ans: 0.0127

----------
conditions: in toluene, 298.15 K
reportedMetric: solubility (mole fraction)

Q: Write down solubility (mole fraction) measured for item CC1(C)CO[P+]([O-])(Oc2c(Br)cc(Br)cc2Br)OC1
Ans: 0.009

----------
conditions: in acetone, 308.15 K
reportedMetric: solubility (mole fraction)
Answers are plain numbers.

Q: Tell us which solubility (mole fraction) value is on record for CC1(C)CO[P+]([O-])(Oc2c(Br)cc(Br)cc2Br)OC1
Ans: 0.0194

----------
conditions: in acetonitrile, 308.15 K
reportedMetric: solubility (mole fraction)
Give bare numbers.

Q: Identify measured solubility (mole fraction) associated with CC1(C)CO[P+]([O-])(Oc2c(Br)cc(Br)cc2Br)OC1
Ans: 0.00755

----------
settings: in methyl acetate, 313.15 K
reportedMetric: solubility (mole fraction)

Q: Give the measured solubility (mole fraction) for CC1(C)CO[P+]([O-])(Oc2c(Br)cc(Br)cc2Br)OC1
Ans: 0.0119

----------
settings: in methyl acetate, 323.15 K
reportedMetric: solubility (mole fraction)
Answers are plain numbers.

Q: Please indicate solubility (mole fraction) recorded for CC1(C)CO[P+]([O-])(Oc2c(Br)cc(Br)cc2Br)OC1
Ans: 0.0163

----------
details: in acetonitrile, 293.15 K
reportedMetric: solubility (mole fraction)
Numbers only.

Q: Tell me its solubility (mole fraction) given CC1(C)CO[P+]([O-])(Oc2c(Br)cc(Br)cc2Br)OC1 as the entry.
Ans: 0.00399

----------
conditions: in methanol, 308.15 K
reportedMetric: solubility (mole fraction)
One number for each entry.

Q: Please look at this compound and report its solubility (mole fraction): CC1(C)CO[P+]([O-])(Oc2c(Br)cc(Br)cc2Br)OC1
Ans: 0.00354

----------
conditions: in dichloromethane, 298.15 K
reportedMetric: solubility (mole fraction)
Answers are plain numbers.

Q: In one line, give reported solubility (mole fraction) of the entry CC1(C)CO[P+]([O-])(Oc2c(Br)cc(Br)cc2Br)OC1 .
Ans: 0.0594

----------
details: in dichloromethane, 293.15 K
reportedMetric: solubility (mole fraction)

Q: Query solubility (mole fraction) for CC1(C)CO[P+]([O-])(Oc2c(Br)cc(Br)cc2Br)OC1
Ans: 0.0546

----------
conditions: in THF, 293.15 K
reportedMetric: solubility (mole fraction)
One number for each entry.

Q: Could you please provide reported solubility (mole fraction) for CC1(C)CO[P+]([O-])(Oc2c(Br)cc(Br)cc2Br)OC1 ? Thanks!
Ans: 0.024

----------
settings: in chloroform, 308.15 K
reportedMetric: solubility (mole fraction)
Answers are plain numbers.

Q: Report solubility (mole fraction), nothing else, for this compound: CC1(C)CO[P+]([O-])(Oc2c(Br)cc(Br)cc2Br)OC1
Ans: 0.1

----------
settings: in ethyl acetate, 333.15 K
reportedMetric: solubility (mole fraction)
Answers are plain numbers.

Q: For the molecule CC1(C)CO[P+]([O-])(Oc2c(Br)cc(Br)cc2Br)OC1 , give its reported solubility (mole fraction).
Ans: 0.0143

----------
settings: in ethyl acetate, 293.15 K
reportedMetric: solubility (mole fraction)
Answers are plain numbers.

Q: Look up and state reported solubility (mole fraction) for CC1(C)CO[P+]([O-])(Oc2c(Br)cc(Br)cc2Br)OC1
Ans: 0.00497
